Reference source for all entries: patent US20220127355A1

Target: T1, Claudin 6 (human) (human, UniProt P56747 1-220)
T1 construct: Expressed on transfected HEK-293T cells or naturally on PA-1 cells for flow cytometry; For the Octet KD values it was the intact protein embedded in virus-like particles (lipoparticles); also called hsCLDN6; CLDN6
T1 chain: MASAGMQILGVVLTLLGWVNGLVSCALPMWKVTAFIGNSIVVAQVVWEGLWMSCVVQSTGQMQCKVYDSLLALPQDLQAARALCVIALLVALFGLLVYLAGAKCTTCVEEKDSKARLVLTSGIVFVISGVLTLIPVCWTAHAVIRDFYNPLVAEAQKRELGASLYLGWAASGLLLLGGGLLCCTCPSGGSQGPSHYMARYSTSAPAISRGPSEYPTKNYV
Assay: binding assay of the 13th table, method not described
pEC50: −log10 of the molar value.
Assay endpoint: pEC50

Solved entries:
Binder	pEC50
IM-271-1HAQ (antibody, V domains shown, also called CH-HAMF5-1HAQ) VH: EVQLLESGGGLVQPGGSLRLSCAASGFTFSSYAMSWVRQAPGKGLEWVAGISSSGRYTGYADSVKGRFTISRDNSKNTLYLQMNSLRAEDTAVYYCAKSVGNGNSWSGYVATSIDAWGQGTLVTVSS VL: SYELTQPPSVSVSPGQTARITCSGGSGSYGWYQQKPGQAPVLVIYGTNKRPSGIPERFSGSSSGTTVTLTISGVQAEDEADYYCGSADSSTNAGIFGGGTKLTVL	> 8.40
IM-35-N1F09-1HA (antibody, V domains shown) VH: EVQLLESGGGLVQPGGSLRLSCAASGFTFSSYGMSWVRQAPGKGLEWVAGIGSSGIYTHYADSVKGRFTISRDNSKNTLYLQMNSLRAEDTAVYYCAKSPGDSDWCGWAGYGIYSCRVAGFIDAWGQGTLVTVSS VL: SYELTQPPSVSVSPGQTARITCSGGYNGHYGWYQQKPGQAPVLVIYGTNKRPSGIPERFSGSSSGTTVTLTISGVQAEDEADYYCGGYDSSAGIFGGGTKLTVL	> 8.40
IM-271-1HGT (antibody, V domains shown, also called CH-HAMF5-1HGT) VH: EVQLLESGGGLVQPGGSLRLSCAASGFTFSSYAMNWVRQAPGKGLEWVAGISSSGRYTGYADSVKGRFTISRDNSKNTLYLQMNSLRAEDTAVYYCAKSVGSGVSWSGYVATSLDVWGQGTLVTVSS VL: SYELTQPPSVSVSPGQTARITCSAGSGLYGWYQQKPGQAPVLVIYGTNKRPSGIPERFSGSSSGTTVTLTISGVQAEDEADYYCGSNDASTNAGIFGGGTKLTVL	> 8.40
IM-271-1HEP (antibody, V domains shown, T0003 prints the label CH-HAMF5-MEP; Tied by the suffix only; also called CH-HAMF5-1HEP; CH-HAMF5-MEP) VH: EVQLLESGGGLVQPGGSLRLSCAASGFTFSSYAMNWVRQAPGKGLEWVAGISSSGRYTGYADSVKGRFTISRDNSKNTLYLQMNSLRAEDTAVYYCAKSVGSGVSWSGYVATSLDAWGQGTLVTVSS VL: SYELTQPPSVSVSPGQTARITCSAGSGLYGWYQQKPGQAPVLVIYGTNKRPSGIPERFSGSSSGTTVTLTISGVQAEDEADYYCGSADSSTNAGIFGGGTKLTVL	> 8.40
IM-271-1HHP (antibody, V domains shown, also called CH-HAMF5-1HHP) VH: EVQLLESGGGLVQPGGSLRLSCAASGFTFSSYAMNWVRQAPGKGLEWVAGISSSGRYTGYADSVKGRFTISRDNSKNTLYLQMNSLRAEDTAVYYCAKSVGSGVSWSGYVATSLDVWGQGTLVTVSS VL: SYELTQPPSVSVSPGQTARITCSGGSGSYGWYQQKPGQAPVLVIYGTYKRPSGIPERFSGSSSGTTVTLTISGVQAEDEADYYCGSADSSTNAGIFGGGTKLTVL	> 8.40

Exercise: Consider the binder shown here: IM-271-1HHR (antibody, V domains shown, also called CH-HAMF5-1HHR) VH: EVQLLESGGGLVQPGGSLRLSCAASGFTFSSYAMNWVRQAPGKGLEWVAGISSSGRYTGYADSVKGRFTISRDNSKNTLYLQMNSLRAEDTAVYYCAKSMGSGVSWSGYVATSLDVWGQGTLVTVSS VL: SYELTQPPSVSVSPGQTARITCSGGSGSYGWYQQKPGQAPVLVIYGTYKRPSGIPERFSGSSSGTTVTLTISGVQAEDEADYYCGSADSSTNAGIFGGGTKLTVL What is its recorded pEC50?
Solution: > 8.40

Exercise: Consider the binder shown here: IM-271-1HFJ (antibody, V domains shown, also called CH-HAMF5-1HFJ) VH: EVQLLESGGGLVQPGGSLRLSCAASGFTFSSYAMNWVRQAPGKGLEWVAGISSSGRYTGYADSVKGRFTISRDNSKNTLYLQMNSLRAEDTAVYYCAKSMGSGVSWSGYVATSIDVWGQGTLVTVSS VL: SYELTQPPSVSVSPGQTARITCSAGSGLYGWYQQKPGQAPVLVIYGTNKRPSGIPERFSGSSSGTTVTLTISGVQAEDEADYYCGSADSSTNAGIFGGGTKLTVL What is its recorded pEC50?
Solution: > 8.40

Exercise: Consider the binder shown here: IM-271-1HBG (antibody, V domains shown, also called CH-HAMF5-1HBG) VH: EVQLLESGGGLVQPGGSLRLSCAASGFTFSSYAMNWVRQAPGKGLEWVAGISSSGRYTGYADSVKGRFTISRDNSKNTLYLQMNSLRAEDTAVYYCAKSMGSGVSWSGYVATSIDAWGQGTLVTVSS VL: SYELTQPPSVSVSPGQTARITCSAGSGLYGWYQQKPGQAPVLVIYGTNKRPSGIPERFSGSSSGTTVTLTISGVQAEDEADYYCGSADSSTNAGIFGGGTKLTVL What is its recorded pEC50?
Solution: > 8.40

Exercise: Consider the binder shown here: IM271 (antibody, V domains shown) VH: EVQLLESGGGLVQPGGSLRLSCAASGFTFSSYAMSWVRQAPGKGLEWVAGISSSGRYTGYADSVKGRFTISRDNSKNTLYLQMNSLRAEDTAVYYCAKSVGNGNSWSGYIATSIDAWGQGTLVTVSS VL: SYELTQPPSVSVSPGQTARITCSGGSGSYGWYQQKPGQAPVLVIYGTNKRPSGIPERFSGSSSGTTVTLTISGVQAEDEADYYCGSADSSTNAGIFGGGTKLTVL What is its recorded pEC50?
Solution: > 8.40
